- Tested on: p210^bcr-abl kinase in K562 cells
- Protocol: Immunoprecipitation kinase assay of p210bcr-abl from ODN treated K562 cells
- Type: cell-based, human
- Particulars: K562 cells incubated 3 days with 50 μM ODN, washed
Result Type: p210^bcr-abl kinase activity of ODN treated K562 cells

>  <Substance>
5'-TGTACGTCCGGCTTACTAGTA-3' (chemistry not given here) [B/A-SCR, scrambled version of the B/A ODN]

>  <Value>
did

$$$$

----------
- Tested on: p210^bcr-abl kinase
- Protocol: Immunoprecipitation kinase assay of p210bcr-abl (autophosphorylation), ODN added to kinase reaction
- Assay type: biochemical, human
- Particulars: ODN 1 μM; phosphorothioate capped; mean ± SE of three experiments
Percent Remaining Activity of p210^bcr-abl kinase relative to control values, listed per item
Result Type: Percent Remaining Activity of p210^bcr-abl kinase relative to control (%)

>  <Substance>
5' TGCCCAACGTCGCGCCGGCGG 3' (chemistry not given here) [ODN1B, scrambled version of ODN1]

>  <Value>
59

$$$$
>  <Substance>
5' GGCCGTGCAGCTCGCACCGGC 3' (chemistry not given here) [ODN1C, scrambled version of ODN1]

>  <Value>
74

$$$$
>  <Substance>
5' GGCGGCCGCGCTGCAACCCGT 3' (chemistry not given here) [ODN1A, scrambled version of ODN1]

>  <Value>
42

$$$$

----------
- Test system: PDGF receptor (PDGFR)
- Protocol: inhibition
- Particulars: PS, two linkages at each of 5' and 3' ends, rest phosphodiester; autophosphorylation
Result Type: IC50 (µM)

>  <Polymer Sequence>
GTCCACCATGGCGCGGCCGGC [ODN1 (BCR-AS), phosphorothioate capped]

>  <Result Type>
IC50

>  <Value>
4.4

$$$$

----------
- Tested on: p210^bcr-abl kinase
- Protocol: Immunoprecipitation kinase assay of p210bcr-abl (autophosphorylation), ODN added to kinase reaction
- Format: biochemical, human
- Particulars: ODN 1 μM; phosphorothioate capped; mean ± SE of three experiments
Result Type: Percent Remaining Activity of p210^bcr-abl kinase relative to control (%)

>  <Substance>
5' TCCGCGAACCCGGTGCGCCGG 3' (chemistry not given here) [ODN1D, scrambled version of ODN1 / BCR-AS]

>  <Value>
79

$$$$
>  <Substance>
5'-GTCCACCATGGCGCGGCCGGC-3' [ODN1] (phosphorothioate caps, further chemistry not given here) [21mer ODN complementary to nucleotides -12 to +9 of the p210bcr-abl mRNA, phosphorothioate capped unless otherwise specified]

>  <Value>
36

$$$$
